Test: pH profiling solubility experiments
Format: physicochemical
Settings: pH 4.0 media, 25 °C, pH 4, aqueous buffer, thermodynamic from solid, media pH 4.0, 25° C.
endpoint: solubility at 24 h

smiles structure	val
C[C@@H]1CN(Cc2ncccn2)C[C@H]1c1cn2c(C3CCOCC3)ncc2c(=O)[nH]1	> 99 mg/mL

----------
Experiment: pH profiling solubility experiments
Format: physicochemical
Conditions: pH 6.5 media, 25 °C, pH 6.5, aqueous buffer, thermodynamic from solid, media pH 6.5, 25° C.

smiles structure	solubility at 24 h
C[C@@H]1CN(Cc2ncccn2)C[C@H]1c1cn2c(C3CCOCC3)ncc2c(=O)[nH]1	> 147 mg/mL
